// data source = paper PMC4336329

Molecular target: human ether-à-go-go-related gene (hERG) potassium channel (human, UniProt Q12809)
Sequence (Q12809 whole entry, looked up): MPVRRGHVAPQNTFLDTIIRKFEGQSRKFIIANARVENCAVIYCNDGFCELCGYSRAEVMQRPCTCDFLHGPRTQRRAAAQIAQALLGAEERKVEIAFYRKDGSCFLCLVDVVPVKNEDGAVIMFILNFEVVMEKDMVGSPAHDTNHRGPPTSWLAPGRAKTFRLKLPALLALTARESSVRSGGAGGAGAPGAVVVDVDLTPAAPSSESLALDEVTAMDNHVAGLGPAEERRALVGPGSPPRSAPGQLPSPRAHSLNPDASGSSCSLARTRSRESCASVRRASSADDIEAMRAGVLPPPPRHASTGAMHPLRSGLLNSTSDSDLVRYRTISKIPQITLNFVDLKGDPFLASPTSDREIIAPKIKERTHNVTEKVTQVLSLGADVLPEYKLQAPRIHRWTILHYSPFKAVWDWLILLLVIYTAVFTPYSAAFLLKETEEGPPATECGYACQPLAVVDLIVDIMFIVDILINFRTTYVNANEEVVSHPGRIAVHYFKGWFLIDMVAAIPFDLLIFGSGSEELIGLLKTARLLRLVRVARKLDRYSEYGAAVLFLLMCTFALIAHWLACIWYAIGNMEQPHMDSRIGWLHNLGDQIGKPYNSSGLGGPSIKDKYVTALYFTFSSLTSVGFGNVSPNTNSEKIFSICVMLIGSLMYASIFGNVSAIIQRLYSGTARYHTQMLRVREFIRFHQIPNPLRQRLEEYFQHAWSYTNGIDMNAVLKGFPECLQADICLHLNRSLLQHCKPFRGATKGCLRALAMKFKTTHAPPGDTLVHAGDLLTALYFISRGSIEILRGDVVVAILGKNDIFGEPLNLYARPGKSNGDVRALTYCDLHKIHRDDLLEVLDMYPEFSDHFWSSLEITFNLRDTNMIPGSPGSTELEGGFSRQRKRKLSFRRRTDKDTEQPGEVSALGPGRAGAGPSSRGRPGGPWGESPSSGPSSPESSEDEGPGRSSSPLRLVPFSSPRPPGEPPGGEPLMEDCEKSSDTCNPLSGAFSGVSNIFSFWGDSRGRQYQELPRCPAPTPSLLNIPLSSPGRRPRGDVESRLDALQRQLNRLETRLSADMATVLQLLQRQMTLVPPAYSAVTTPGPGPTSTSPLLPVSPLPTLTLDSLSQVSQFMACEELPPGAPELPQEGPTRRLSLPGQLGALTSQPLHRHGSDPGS
Assay: primary screen, population patch clamp on CHO cells stably expressing hERG; higher = less effect of the substance
About 14,000 (4.5%) of roughly 310,000 compounds showed an effect of 50% or more. Effects have a minus sign here. The full list was thinned out, with strong results kept by preference.
measurement-kind: hERG current change (%, negative = inhibition) at 10uM (%)

{"compound": "OC(CNCc1ccccc1)c1ccccc1 (stereo not drawn)", "reported-value": 4.68}
{"compound": "O=C(Nc1ccc(F)cc1F)c1cncc(Br)c1", "reported-value": -3.88}
{"compound": "CSc1ncc(CN2CCN(C3CCCC3)C(CCO)C2)cn1 (stereo not drawn)", "reported-value": -0.478}
{"compound": "O=C(OCC(=O)N1CCCC1=O)c1nc(Cl)ccc1Cl", "reported-value": 5.78}
{"compound": "CSc1cccc(CN2CCN(Cc3ccc(F)c(F)c3)C(CCO)C2)c1 (stereo not drawn)", "reported-value": -69.5}
{"compound": "CCNCC(O)c1cccc(O)c1 (stereo not drawn)", "reported-value": 20.8}
{"compound": "CSc1ccc(CNC(C)C(O)c2ccccc2)cc1.Cl (stereo not drawn)", "reported-value": -51.4}
{"compound": "O=C(CSc1n[nH]c(=O)n1C1CC1)c1c[nH]c2ccccc12", "reported-value": 9.29}
{"compound": "Cl.OC(CNCc1ccc(-c2ccccc2)cc1)c1ccccc1 (stereo not drawn)", "reported-value": -16.1}

====

Target: human ether-à-go-go-related gene (hERG) potassium channel (human, UniProt Q12809)
Assay: primary screen, population patch clamp on CHO cells stably expressing hERG; higher = less effect of the substance
Among all 310,000 compounds or so, about 14,000 (4.5%) showed an effect of 50% or more. Effects have a minus sign here. The list comes from a sample in which strong results are over-represented; it also holds close analogues and randomly drawn compounds.
measurement-kind: hERG current change (%, negative = inhibition) at 10uM (%)

{"compound": "Cc1cc(C)c2nc(-c3cccnc3)cc(C(=O)NC(C)c3cnn(C)c3C)c2c1 (stereo not shown)", "units-text": "%", "reported-value": -30.6}
{"compound": "CCOc1cc(C(=O)NN2CCOCC2)cc(OCC)c1OCC", "units-text": "%", "reported-value": 35.2}
{"compound": "COc1ccc(OC)c(-n2c(-c3cc(-c4ccco4)[nH]n3)n[nH]c2=S)c1", "units-text": "%", "reported-value": 1.18}
{"compound": "CN(C)S(=O)(=O)c1cccc(NC(=O)c2ccc(OC(F)(F)F)cc2)c1", "units-text": "%", "reported-value": -27.8}
{"compound": "Cc1nc2ccc(Br)cn2c1C(=O)N/N=C\\c1ccccc1[N+](=O)[O-]", "units-text": "%", "reported-value": 27.6}
{"compound": "Cn1cnc([N+](=O)[O-])c1NCc1ccccc1", "units-text": "%", "reported-value": 10.3}
{"compound": "N#Cc1c(C(F)(F)F)cc(-c2ccccc2)n(N)c1=O", "units-text": "%", "reported-value": 13.9}

====

Target: human ether-à-go-go-related gene (hERG) potassium channel (human, UniProt Q12809);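 further: peak tail current of the secondary pulse compared with the same well before compound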
Test: primary screen, population patch clamp on CHO cells stably expressing hERG; higher = less effect of the substance
Hit rate of the full screen: of about 310,000 compounds, about 14,000 (4.5%) showed an effect of 50% or more. The effect is printed as a negative number. What follows is part of a selection rich in strong results, with near analogues and random picks from the rest.
measurement-kind: hERG current change (%, negative = inhibition) at 10uM (%)

{"compound": "CCN(CC)S(=O)(=O)c1cccc(-c2nnc(SC(C)C#N)n2Cc2ccccc2)c1 (stereo not shown)", "system-under-test": "human ether-à-go-go-related gene (hERG) potassium channel (human, UniProt Q12809)", "reported-value": -7.34}
{"compound": "CCN(CC)S(=O)(=O)c1cccc(-c2nnc(SCC(=O)NC)n2N)c1", "system-under-test": "human ether-à-go-go-related gene (hERG) potassium channel (human, UniProt Q12809)", "reported-value": 8.5}
{"compound": "c1cnc2ccc(C(c3nnnn3C3CCCCC3)N3CCCCC3)cc2c1 (stereo not shown)", "system-under-test": "human ether-à-go-go-related gene (hERG) potassium channel (human, UniProt Q12809)", "reported-value": -15.6}
{"compound": "O=C(CN1C(=O)/C(=C/c2ccco2)SC1=S)Nc1ccc(O)c(C(=O)O)c1", "system-under-test": "human ether-à-go-go-related gene (hERG) potassium channel (human, UniProt Q12809)", "reported-value": 25.2}
{"compound": "COc1ccc(CN(C)C(=O)COC(=O)c2c(-c3ccccc3Cl)noc2C)cc1", "system-under-test": "human ether-à-go-go-related gene (hERG) potassium channel (human, UniProt Q12809)", "reported-value": -15.1}
{"compound": "C/C(=N\\NC(=O)c1nonc1N)c1cccs1", "system-under-test": "human ether-à-go-go-related gene (hERG) potassium channel (human, UniProt Q12809)", "reported-value": 4.26}
{"compound": "CCN(CC)S(=O)(=O)c1ccc(-c2nnc(SCc3nnc(-c4ccccc4)o3)o2)cc1", "system-under-test": "human ether-à-go-go-related gene (hERG) potassium channel (human, UniProt Q12809)", "reported-value": 7.63}

====

Target: human ether-à-go-go-related gene (hERG) potassium channel (human, UniProt Q12809);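 further: peak tail current of the secondary pulse compared with the same well before compound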
Test: primary screen, population patch clamp on CHO cells stably expressing hERG; higher = less effect of the substance
Screen size: about 310,000 compounds; about 14,000 (4.5%) showed an effect of 50% or more. The effect is printed as a negative number. This excerpt belongs to a sample that is enriched for strong results.
measurement-kind: hERG current change (%, negative = inhibition) at 10uM

{"smiles-input": "Cc1c(C)n(Cc2ccc(F)cc2)c2ccc(C(=O)NCCN3CCOCC3)cc12", "reported-value": "-19.2%"}
{"smiles-input": "CCc1ccccc1N(CC(=O)N1CCN(c2ccccc2F)CC1)S(C)(=O)=O", "reported-value": "0.701%"}
{"smiles-input": "CCSc1nn2c(=O)c3ccccc3nc2s1", "reported-value": "-13.2%"}

====

Molecular target: human ether-à-go-go-related gene (hERG) potassium channel (human);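 further: peak tail current of the secondary pulse compared with the same well before compound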
Assay: primary screen, population patch clamp on CHO cells stably expressing hERG; higher = less effect of the substance
In all, about 310,000 compounds went through this assay and about 14,000 (4.5%) showed an effect of 50% or more. The effect is printed as a negative number. Shown is part of a subset that was picked to be rich in strong results.
measurement-kind: hERG current change (%, negative = inhibition) at 10uM (%)

{"compound": "CC(=O)Nc1ccc(NC(=O)C(C)OC(=O)C2CC(=O)N(CCc3ccccc3)C2)cc1 (stereo not drawn)", "reported-value": 14.4}
{"compound": "CN(C)CCNC(=O)c1ccc2c(=O)n(Cc3ccc(Cl)cc3)c(=S)[nH]c2c1", "reported-value": -27.8}
{"compound": "O=c1[nH]c(O)c(N=Nc2ccc(S(=O)(=O)N3CCOCC3)cc2)c(=O)[nH]1", "reported-value": -4.59}
{"compound": "CC(C)CNS(=O)(=O)c1ccc(OCC(=O)NCC2CCCO2)c(Cl)c1 (stereo not drawn)", "reported-value": -4.3}
{"compound": "Cc1nc(CNC(=O)C2CCC(=O)N(Cc3cccc(F)c3)C2)sc1C (stereo not drawn)", "reported-value": 5.68}
{"compound": "O=C(COC(=O)C1CC(=O)N(CCc2ccccc2)C1)c1ccc[nH]1 (stereo not drawn)", "reported-value": -41.8}
{"compound": "O=C(Nc1ccccn1)c1cc(-c2cccc(Cl)c2)nc2ccccc12", "reported-value": 13.3}
{"compound": "CCCOc1ccc(S(=O)(=O)NCCN2CCOCC2)c2ccccc12", "reported-value": -23.3}
{"compound": "CC(C)(C)C(=O)NCCCc1nc2ccccc2n1CCCOc1ccc(Cl)cc1", "reported-value": -57.2}
{"compound": "COC(=O)C1CC(=O)N(Cc2ccccc2)C1 (stereo not drawn)", "reported-value": 23.4}
{"compound": "CC1CCCCN1CCNC(=O)c1ccc2c(=O)n(Cc3ccc(Cl)cc3)c(=S)[nH]c2c1 (stereo not drawn)", "reported-value": -50.9}
{"compound": "Cc1cc(NS(=O)(=O)c2cccs2)no1", "reported-value": -3.03}
{"compound": "CC1CCN(CCCNC(=O)c2ccc3c(=O)n(Cc4ccc(Cl)cc4)c(=S)[nH]c3c2)CC1", "reported-value": -68.4}
{"compound": "COc1ccc(C(=O)NC(=S)N2CCN(c3ccccc3OC)CC2)cc1", "reported-value": -21.6}
{"compound": "CCc1nn(CC(=O)NCCc2ccc(S(N)(=O)=O)cc2)c(=O)c2cc3sccc3n12", "reported-value": 20.1}

====

Target: human ether-à-go-go-related gene (hERG) potassium channel (human);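 further: peak tail current of the secondary pulse compared with the same well before compound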
Test: primary screen, population patch clamp on CHO cells stably expressing hERG; higher = less effect of the substance
Out of some 310,000 compounds screened, about 14,000 (4.5%) showed an effect of 50% or more. The effect is printed as a negative number. The sample holds strong results, similar compounds and a random draw of the others, so the mix is not that of the screen.
This listing pairs molecules with measured hERG current change (%, negative = inhibition) at 10uM.
measurement-kind: hERG current change (%, negative = inhibition) at 10uM (%)

{"molecule": "C=CCc1cc(Cl)ccc1OCCOCCNC(C)(C)C.O=C(O)C(=O)O", "reported-value": -49.5}
{"molecule": "COc1ccc(NC(=O)CN2CCN(Cc3ccc4c(c3)OCO4)CC2)cc1OC.O=C(O)C(=O)O", "reported-value": -17.4}
{"molecule": "CCCCn1c(NC(=O)c2ccc(Br)o2)c(S(=O)(=O)c2ccccc2)c2nc3ccccc3nc21", "reported-value": -0.885}
{"molecule": "COc1ccc(/C=N/NC(=O)c2ccc(N(C)S(=O)(=O)c3ccccc3)cc2)c(OC)c1", "reported-value": 6.66}
{"molecule": "Fc1ccccc1N1CCN(Cc2ccc3c(c2)OCO3)CC1", "reported-value": -26.8}
{"molecule": "CC(C)N(CCNC(=O)c1oc(=O)c2ccccc2c1-c1ccccc1)Cc1ccco1", "reported-value": -67.9}
{"molecule": "CN(C)CCOCCOc1ccc(Cl)cc1C(C)(C)C.O=C(O)C(=O)O", "reported-value": -37.3}
{"molecule": "C=CCn1c(N2CCN(c3ccc(OC)cc3)CC2)nc2c1c(=O)[nH]c(=O)n2C", "reported-value": -24.6}
{"molecule": "CCC(C)n1c(-c2cccc(S(=O)(=O)N(CC)CC)c2)n[nH]c1=S (stereo not shown)", "reported-value": 26.6}
{"molecule": "COc1cc(CNCC2CCCO2)ccc1OCC(N)=O.Cl (stereo not shown)", "reported-value": 16.3}
{"molecule": "COc1ccc(OC)c(S(=O)(=O)Nc2cccc3ccc(O)cc23)c1", "reported-value": 6}
{"molecule": "O=C(CN1CCN(Cc2ccc3c(c2)OCO3)CC1)Nc1cc(S(=O)(=O)N2CCCC2)ccc1Cl", "reported-value": -18.8}
{"molecule": "COc1ccc(-c2nnc(SCc3nnc(-c4ccccc4)o3)n2C)cc1OC", "reported-value": -54.3}
{"molecule": "CN(C)S(=O)(=O)c1ccc(Cl)c(NC(=O)CN2CCCCCC2)c1", "reported-value": -24.6}
{"molecule": "Cc1cc(NC(=O)CCCC(=O)OCC(F)(F)C(F)F)cc(C)c1C(=O)O", "reported-value": 20.1}
{"molecule": "CCCCCn1c(NC(=O)c2ccco2)c(C(=O)OCC)c2nc3ccccc3nc21", "reported-value": -80.4}
{"molecule": "NNC(=O)CCN1CCN(C(c2ccccc2)c2ccccc2)CC1", "reported-value": -7.7}
{"molecule": "COc1cc(C(=O)OCC(=O)N2CCOCC2)c([N+](=O)[O-])cc1OC", "reported-value": 14.5}
{"molecule": "O=C(CSC1CN(C(c2ccccc2)c2ccccc2)C1)N/N=C/c1ccccc1", "reported-value": 1.64}
{"molecule": "COC(=O)[C@]1(CC(C)C)N[C@H](c2ccc(-c3ccc(F)cc3)cc2)[C@@H]2C(=O)N(C)C(=O)[C@@H]21.O=C(O)C(F)(F)F", "reported-value": -15.7}
{"molecule": "OC1(c2ccc3c(c2)OCO3)CCN(Cc2ccc(F)cc2)CC1", "reported-value": -51.4}
{"molecule": "N#Cc1c(F)cccc1N1CCN(Cc2ccc3c(c2)OCO3)CC1", "reported-value": -81.3}
{"molecule": "CCCCn1c(NS(=O)(=O)c2ccccc2)c(C(=O)OCC)c2nc3ccccc3nc21", "reported-value": -23.9}
{"molecule": "ON1C2CCCCC2N(O)C1c1ccccc1 (stereo not shown)", "reported-value": 13.2}
{"molecule": "Cc1occc1-c1nnc(SCC(=O)Nc2c(F)cccc2F)n1C", "reported-value": -7.23}
{"molecule": "C=CCc1cc(Cl)ccc1OCCOCCN(C)C.O=C(O)C(=O)O", "reported-value": -51.5}
{"molecule": "O=C(NCC(c1cccs1)N1CCOCC1)c1ccccc1NS(=O)(=O)c1ccc(Br)cc1 (stereo not shown)", "reported-value": -38.4}
{"molecule": "Cc1ccccc1NC(=O)c1oc(=O)c2ccccc2c1-c1ccccc1", "reported-value": -1.57}
{"molecule": "CCOC(=O)c1c(NC(=O)c2ccco2)n(C2CCCCC2)c2nc3ccccc3nc12", "reported-value": -35.6}
{"molecule": "CCN(CC)S(=O)(=O)c1cccc(-c2n[nH]c(=S)n2CC(C)C)c1", "reported-value": 6.22}
{"molecule": "COC(=O)C(Cc1ccccc1)NC(=O)CCc1c[nH]c2ccccc12 (stereo not shown)", "reported-value": -8.09}
